All figures here come from PubChem BioAssay (NCI).

- Tested on: M14 melanoma
- Assay notes: NCI-60 one-dose screen, 48 h (100 = growth as untreated, 0 = no growth, -100 = all killed)
- Protocol conditions: 10 µM unless noted
The panel holds about 83,000 compounds, 20% with a hit somewhere; the sample as a whole holds those more often.
Measurement name: growth (%)
Give the value in % but do not write % after it.

Molecule | Value unit | Value
Cn1cc(-c2nc(-c3c[nH]c4ccncc34)cs2)c2ccccc21 | % | -71.5
CC1=C(C(=O)OC(C)C)C(c2ccc3c(c2)OCO3)NC(=S)N1 (stereo not drawn) | % | 99

Okay, next one:
Per the record, COC1C[C@H](O[C@@H]2C[C@H](O[C@@H]3C[C@H](O[C@@H]4C(=O)c5c(cc6cc(O[C@H]7C[C@@H](O[C@H]8C[C@@H](O)[C@H](O)C(C)O8)[C@H](O)C(C)O7)c(C)c(O)c6c5O)C[C@H]4C(OC)C(=O)[C@@H](O)[C@@H](C)O)OC(C)[C@H]3O)OC(C)[C@@H]2O)OC(C)[C@@H]1O (stereo partly drawn) has growth of -22.7

----------
- Tested on: SF-295 CNS
- Assay notes: NCI-60 one-dose screen, 48 h
- Protocol conditions: 10 µM unless noted
The panel holds about 83,000 compounds, 20% with a hit somewhere; the sample as a whole holds those more often. Calls of active or inactive are those of the source. Rule for the calls: active = growth percent below 10; inactive = the rest.
A correct response names exactly one class from True = active, False = inactive

Compound | Group
CCOC(=O)C#Cc1c(C(=O)OCC)nnn1[C@@H]1O[C@H](CO)[C@H]2OC3(CCCCC3)O[C@H]21 | False
O=S(=O)(Nc1ccc(Cl)cc1)c1ccc(-c2cnc(C3CC3)o2)cc1 | False
O=C(/C=C/c1ccc(Cl)cc1)c1cccc(Nc2nc(Nc3ccccc3)nc(Nc3ccccc3)n2)c1 | False
O=Cc1ccc([N+](=O)[O-])s1 | False

Can you look up the reported call for `Oc1ccc(CN2CCC(N3CCCCC3)CC2)c2cccnc12` for me?
False

Can you look up the reported call for `O=C(O)CNC1=C(Cl)C(=O)c2ccccc2C1=O` for me?
False

Can you look up the reported call for Cc1cnc(C(=O)NNc2nc3sc4c(c3c(=O)n2C)C(C)CCC4)cn1 (stereo unspecified) for me?
True

Can you look up the reported call for `Cc1nc2sc(C(=O)Nc3ccccc3)c(N)c2cc1C(=O)c1ccccc1` for me?
True

Can you look up the reported call for `CCOP(=O)(OCC)c1nc(-c2ccccc2)oc1NCc1cccnc1` for me?
False

Can you look up the reported call for `Cn1cc(-c2csc(-c3ccc(Cl)cc3)n2)c2cccnc21` for me?
True

Can you look up the reported call for `O=C1/C(=C/c2ccc(Cl)cc2)COc2ccc(O)c(O)c21` for me?
False

----------
- Test system: HOP-62 NSCLC
- Assay notes: NCI-60 one-dose screen, 48 h (100 = growth as untreated, 0 = no growth, -100 = all killed)
- Protocol conditions: 10 µM unless noted
Compounds without any hit were thinned out: in the full panel of roughly 83,000, 20% have a hit.
Consider the following molecules and their measured growth readings.
Give the value in % but do not write % after it.

Molecule | Measurement name | Value
COc1ccc(-c2csc(N(C(=O)N3CCN(c4cc5c(cc4F)c(=O)c(C(=O)O)cn5C4CC4)CC3)c3ccccc3)n2)cc1 | growth | 9.2
O=C1/C(=C/c2ccc(-c3ccc(Br)cc3)o2)SC(=S)N1CCc1ccc(O)cc1 | growth | 90.6
COc1ccc(C(=O)C2C(c3ccc(OC)cc3)CN(C)C23C(=O)Nc2ccccc23)cc1 (stereo not drawn) | growth | 94.3
CCCC(=O)NC(c1ccc2c(c1)OCO2)c1ccc2cccnc2c1O (stereo not drawn) | growth | 20.4
Clc1ccc(Sc2cnc(-c3ccccc3)o2)cc1 | growth | 94.4
CCCCCCC1(C)NCCO1 (stereo not drawn) | growth | 105

// assay HOP-62 NSCLC, entry `Brc1ccc2[nH]cc(-c3nonc3-c3c[nH]c4ccccc34)c2c1` , growth value = 43.4

// assay HOP-62 NSCLC, entry COC1C[C@H](O[C@@H]2C[C@H](O[C@@H]3C[C@H](O[C@@H]4C(=O)c5c(cc6cc(O[C@H]7C[C@@H](O[C@H]8C[C@@H](O)[C@H](O)C(C)O8)[C@H](O)C(C)O7)c(C)c(O)c6c5O)C[C@H]4C(OC)C(=O)[C@@H](O)[C@@H](C)O)OC(C)[C@H]3O)OC(C)[C@@H]2O)OC(C)[C@@H]1O (stereo partly drawn) , growth value = -7.62

----------
- Tested on: K-562 leukemia
- Assay notes: NCI-60 one-dose screen, 48 h
- Protocol conditions: 10 µM unless noted
- Method: Cells are grown in 96 well plates and exposed to the test compound for 48 hours. Compounds are tested at a single concentration, which is 10^-5 M for most compounds. The reported endpoint is percent growth (GI% or GIPRCNT), where numbers from 0 - 100% represent growth inhibition, and numbers from -100% - 0 represent cell death. For example, a value of 40 represents 60% growth inhibition. A value of 0 means no net growth occurred over the course of the experiment. […]
The panel holds about 83,000 compounds, 20% with a hit somewhere; the sample as a whole holds those more often. Active and inactive are the calls of the source. How the source made its calls: active means growth percent below 10; inactive means the rest.
A correct response names exactly one class from active, inactive

Worked set:
Molecule | Group
CC(O)c1cnc(/C=C2\SC(=S)N(Cc3ccccc3)C2=O)s1 (stereo not given) | inactive
O=c1oc2ccc([N+](=O)[O-])cc2cc1Br | inactive
CCOC(=O)Cn1c(O)c(N=Nc2ccc(S(N)(=O)=O)cc2)c2cc(Br)ccc21 | inactive
Cc1c(-c2nc3ccc(F)cc3c(=O)[nH]2)c2ccccc2n1C | inactive
O=C1/C(=C/c2ccc(-c3ccc(Br)cc3)o2)SC(=S)N1CCc1ccc(O)cc1 | active

Can you look up the reported call for `CN1CCN(c2ccc(C(=O)Nc3cccc(C#Cc4cccc5[nH]nc(N)c45)c3)cc2C(F)(F)F)CC1` for me?
active

Can you look up the reported call for `CCOc1nc(-c2ccccc2)cc2c(O)c(C(=O)NN)[nH]c(=O)c12` for me?
inactive

Can you look up the reported call for `CCOC(=O)c1cn2ncnc(Oc3ccc(NC(=O)NC4CCCCC4)c(Cl)c3)c2c1C` for me?
inactive

Can you look up the reported call for `COC(=O)c1cc(-c2ccccc2)[nH]c1N/N=C/c1c(Cl)cccc1Cl` for me?
active

Can you look up the reported call for COc1cccc(CNc2ncnc3c2ncn3C2OC(CO)C(O)C2O)c1O (stereo not given) for me?
active

----------
- Test system: ACHN renal
- Assay notes: NCI-60 one-dose screen, 48 h (100 = growth as untreated, 0 = no growth, -100 = all killed)
- Protocol conditions: 10 µM unless noted
The panel holds about 83,000 compounds, 20% with a hit somewhere; the sample as a whole holds those more often.
Is growth at least 80%? Then Condition met. If not, Condition not met.

Compound | Group
COc1ccc(C2=Nc3c/c(=C\c4c(O)[nH]c5ccc(Cl)cc45)ccc3=N2)cc1 | Condition not met

Does `COC(=O)[C@]1(C)CCC[C@]2(C)[C@H]3C[C@H]4C(C(C)C)=C[C@]3(CC[C@H]21)[C@H]1[C@@H]4[C@@H](OCCC#N)CC[C@@H]1OCCC#N` have a reported growth of at least 80%?
Condition not met

Does O=C(CI)NC1Oc2ccccc2-c2oc(=O)c(-c3ccccc3)cc21 (centres undefined) have a reported growth of at least 80%?
Condition not met

----------
- Test system: UO-31 renal
- Assay notes: NCI-60 one-dose screen, 48 h (100 = growth as untreated, 0 = no growth, -100 = all killed)
- Protocol conditions: 10 µM unless noted
This is part of a sample that, as a whole, favours compounds with a hit. Of some 83,000 tested, about 20% had one in any assay.
Measurement name: growth (%)
Give the value in % but do not write % after it.

These recorded examples may help you get a feel for the data.
Molecule | Measurement name | Value
Cn1c(O)c(C=NCCN=Cc2c(O)n(C)c(=O)n(C)c2=O)c(=O)n(C)c1=O | growth | 84.7
CCc1nc2c(=O)[nH]cnc2o1 | growth | 75.7
O=C(CCC(=O)N/N=C/c1ccccc1O)N/N=C/c1ccccc1O | growth | 17.4

// assay UO-31 renal, entry `CCCCNC(=O)Oc1ccc(/C(=C(/CC)Cc2ccccc2)c2ccc(OCCN3CCCCCC3)cc2)cc1` , growth value = 35.2

// assay UO-31 renal, entry `O=C(Nc1nn(-c2ccc(Cl)cc2Cl)nc1-c1ccccc1)c1ccccc1` , growth value = 67.6

// assay UO-31 renal, entry `O=C1NCCC12CCN(c1c(Cl)cncc1-c1ccc(O)cc1)CC2` , growth value = 77.8

// assay UO-31 renal, entry `O=C(c1ccc(Cl)cc1)N1CCN(c2ccnc3cc(Cl)ccc23)CC1` , growth value = 58

// assay UO-31 renal, entry `CCN(CC)c1nc(SCc2ccccc2Cl)ncc1C` , growth value = 102

// assay UO-31 renal, entry `CC(C)CCC[C@@H](C)[C@H]1CC[C@H]2[C@@H]3CC=C4C[C@@H](C(C(=O)O)C(=O)O)CC[C@]4(C)[C@H]3CC[C@]12C` , growth value = -53.4

// assay UO-31 renal, entry COc1ccc(CC(C#N)c2cc3ccccc3[nH]2)cc1 (configuration not stated) , growth value = 61.5

// assay UO-31 renal, entry `O=c1oc2ccc([N+](=O)[O-])cc2cc1Br` , growth value = 88.5

// assay UO-31 renal, entry COc1cc2c(c(OC)c1OC)CCC(c1cccc(C(=O)Nc3cccc(Br)c3)c1)O2 (configuration not stated) , growth value = 54.7

// assay UO-31 renal, entry `O=C(NCCCN1CCOCC1)c1cccc(N2C(=O)/C(=C/c3ccc(F)cc3)SC2=S)c1` , growth value = 70.7

// assay UO-31 renal, entry `O=C(Cn1c(=O)sc2nc3ccccc3nc21)Nc1ncc(Cc2cccc(Cl)c2Cl)s1` , growth value = 65.5

// assay UO-31 renal, entry `O=C(Nc1cccnc1Nc1ccc(F)cc1)c1cn(Cc2cccc(Oc3ccccc3)c2)nn1` , growth value = 46.7

// assay UO-31 renal, entry `COc1cc(-c2csc(NC(=O)c3cc(-n4cnc(C)c4)cc(C(F)(F)F)c3)n2)cc(OC)c1OC` , growth value = 29.8

// assay UO-31 renal, entry `C=CCn1cc(-c2nc3ccccc3s2)c2cc(-c3ccc4c5c(cccc35)C(=O)N(N)C4=O)ccc21` , growth value = 61.3

// assay UO-31 renal, entry `c1cc2[nH]ncc2cc1-c1nc2ccc3[nH]ncc3c2c2c1CCCC2` , growth value = -0.203

// assay UO-31 renal, entry CN(C)CCCC1(c2ccc(F)cc2)OCc2cc(-c3cncc4ccccc34)ccc21 (configuration not stated) , growth value = 29.9

// assay UO-31 renal, entry COc1cc(N2C(=O)[C@H](O)C2c2ccc(SC)cc2)cc(OC)c1OC (some centres not stated) , growth value = 43.5

// assay UO-31 renal, entry `Cc1ccc2c(n1)C(=O)c1[nH]c3ccccc3c1C2=O` , growth value = 50.5

// assay UO-31 renal, entry `Cn1cc(-c2nc(-c3c[nH]c4ccncc34)cs2)c2ccccc21` , growth value = 57.9
